Listing of recorded APOE RNA (% control) Spinal Cord by entry.
System: human APOE RNA
Protocol Notes: Potency (dose response, ED50) in APOE C57BL/6NTac-Apoeem7250 knock-in mice, 8 weeks (Example 15)
Format: in vivo
Conditions: spinal cord, ICV dose 700 μg
Strand notation (5' to 3'): a small letter for the sugar, then the base; units joined by * are phosphorothioate-linked, units joined directly phosphodiester-linked; [ ] holds rarer units or linkages, { } end groups; capitals alone tell only the bases. [ms] = mesyl phosphoramidate linkage; e = 2'-O-(2-methoxyethyl) (MOE); k = constrained ethyl (cEt); [5mC] = 5-methylcytosine; d = 2'-deoxy (DNA)
Assay Readout: APOE RNA (% control) Spinal Cord

- Aks^mCeoTeoTesGesGksTdsGdzAdzAdzTds^mCdsTdsTdsTdsAdzTksTksAesAe (kA*e[5mC]eTeT*eG*kG*dT*dG[ms]dA[ms]dA[ms]dT*d[5mC]*dT*dT*dT*dA[ms]kT*kT*eA*eA) [Compound No. 1809635]: 18 % control
- Aes^mCeoTeoTesGesGksTdsGdzAdzAdzTds^mCdsTdsTdsTdsAdzTksTksAesAe (eA*e[5mC]eTeT*eG*kG*dT*dG[ms]dA[ms]dA[ms]dT*d[5mC]*dT*dT*dT*dA[ms]kT*kT*eA*eA) [Compound No. 1757576]: 9 % control
- 1785599: modified oligonucleotide complementary to human APOE RNA (k[5mC]*kT*kT*dG[ms]dG[ms]dT[ms]dG[ms]dA[ms]dA[ms]dT[ms]d[5mC]*dT*dT*dT*dA*dT*kT*kA*dA[ms]kA; antisense) [compound 1785599]: 12 % control
- TezTeoGeoGksTdsGdzAdzAdzTds^mCdsTdsTdsTdsAdzTksTksAesAesAes^mCe (antisense eT[ms]eTeGkG*dT*dG[ms]dA[ms]dA[ms]dT*d[5mC]*dT*dT*dT*dA[ms]kT*kT*eA*eA*eA*e[5mC]) [Compound No. 1809814]: 28 % control
- ^mCksTksTksGdzGdzTdzGdzAdzAdzTds^mCdsTdsTdsTdsAdsTdsTksAksAdzAk (antisense k[5mC]*kT*kT*dG[ms]dG[ms]dT[ms]dG[ms]dA[ms]dA[ms]dT*d[5mC]*dT*dT*dT*dA*dT*kT*kA*dA[ms]kA) [Compound No. 1785602]: 22 % control

----------
Tested on: human APOE RNA
Protocol Notes: Dose-dependent inhibition of human APOE RNA in differentiated SH-SY5Y cells, free uptake, 5 days (Example 5)
Assay type: cell-based
Conditions: 1,280 nM, 5 days (Table 14)
Strand notation (5' to 3'): a small letter for the sugar, then the base; units joined by * are phosphorothioate-linked, units joined directly phosphodiester-linked; [ ] holds rarer units or linkages, { } end groups; capitals alone tell only the bases. [ms] = mesyl phosphoramidate linkage; k = constrained ethyl (cEt); [5mC] = 5-methylcytosine; d = 2'-deoxy (DNA)
Items are presented alongside their recorded APOE RNA (% UTC).
Assay Readout: APOE RNA (% UTC)

* 1746784 (k[5mC]*kT*kT*dG[ms]dG[ms]dT[ms]dG[ms]dA[ms]dA[ms]dT*d[5mC]*dT*dT*dT*dA[ms]dT*kT*kA*dA[ms]kA; antisense) [Compound 1746784] | 36
* 1785617: modified oligonucleotide complementary to human APOE RNA (k[5mC]*dT[ms]dT[ms]kG*dG[ms]kT*dG[ms]dA[ms]dA[ms]dT[ms]d[5mC]*dT*dT*dT*dA*dT*kT*kA*dA[ms]kA; antisense) [compound 1785617] | 29

----------
Test system: human APOE RNA
Protocol Notes: Dose-dependent inhibition of human APOE RNA in HepG2 cells, electroporation, 50,000 cells per well, RT-PCR normalized to GAPDH (Example 4, Tables 8-10)
Assay type: cell-based
Conditions: 82 nM; HepG2, electroporation, 16-hour treatment
Protocol: Modified oligonucleotides selected from the examples above were tested at various doses in HepG2 cells. The modified oligonucleotides were tested in a series of experiments that had the same culture conditions. Each experiment is identified in separate tables below. HepG2 cells plated at a density of 50,000 cells per well were treated by electroporation with various concentrations of modified oligonucleotide as specified in the tables below. […]
Strand notation (5' to 3'): a small letter for the sugar, then the base; units joined by * are phosphorothioate-linked, units joined directly phosphodiester-linked; [ ] holds rarer units or linkages, { } end groups; capitals alone tell only the bases. [ms] = mesyl phosphoramidate linkage; e = 2'-O-(2-methoxyethyl) (MOE); k = constrained ethyl (cEt); [5mC] = 5-methylcytosine; d = 2'-deoxy (DNA)
Assign Fulfilled whenever APOE RNA (% UTC) does not fall below 90 % UTC; assign Not fulfilled whenever it does.

* 1757565 (eA*e[5mC]eTeTkG*dG*dT*dG*dA*dA*dT*d[5mC]*dT*dT*dT*eAeTeT*eA*eA; antisense) [Compound 1757565] | Not fulfilled
* 1757564: mixed MOE/cEt gapmer TTGGTGAATCTTTATTAA, sugar eeeekddddddddkeeke, linkages soossssssssssooss (eT*eTeGeG*kT*dG*dA*dA*dT*d[5mC]*dT*dT*dT*kAeTeT*kA*eA) [compound 1757564] | Fulfilled
* 1757585 (eT*eTeGkGkT*dG*dA*dA*dT*d[5mC]*dT*dT*dT*dA*dT*kTeAeA*eA*e[5mC]; antisense) [Compound 1757585] | Not fulfilled
* 1757563: mixed MOE/cEt gapmer TTGGTGAATCTTTATTAA, sugar eeeekddddddddkekee, linkages soossssssssssooss (eT*eTeGeG*kT*dG*dA*dA*dT*d[5mC]*dT*dT*dT*kAeTkT*eA*eA) [compound 1757563] | Fulfilled
* 1757572 (eA*e[5mC]eTeT*kG*kG*dT*dG[ms]dA[ms]dA[ms]dT*d[5mC]*dT*dT*dT*dA[ms]eT*eT*eA*eA; antisense) [Compound 1757572] | Fulfilled

----------
Test system: human APOE RNA
Protocol Notes: Dose-dependent inhibition of human APOE RNA in HepG2 cells, electroporation, 50,000 cells per well, RT-PCR normalized to GAPDH (Example 4, Tables 8-10)
Assay type: cell-based
Conditions: 205 nM; HepG2, electroporation, 16-hour treatment
Strand notation (5' to 3'): a small letter for the sugar, then the base; units joined by * are phosphorothioate-linked, units joined directly phosphodiester-linked; [ ] holds rarer units or linkages, { } end groups; capitals alone tell only the bases. [ms] = mesyl phosphoramidate linkage; e = 2'-O-(2-methoxyethyl) (MOE); k = constrained ethyl (cEt); [5mC] = 5-methylcytosine; d = 2'-deoxy (DNA)
Quick reference for APOE RNA (% UTC) among some substances
Assay Readout: APOE RNA (% UTC)

• 1757582 (eT*eTeGkGkT*dG*dA*dA*dT*d[5mC]*dT*dT*dT*dA*dT*eTeAeA*eA*e[5mC]; antisense) [Compound 1757582] = 70
• 1757572 (eA*e[5mC]eTeT*kG*kG*dT*dG[ms]dA[ms]dA[ms]dT*d[5mC]*dT*dT*dT*dA[ms]eT*eT*eA*eA; antisense) [Compound 1757572] = 83
• 1757575 (eA*e[5mC]eTeT*kG*kG*dT*dG[ms]dA[ms]dA[ms]dT*d[5mC]*dT*dT*dT*dA[ms]kT*eT*eA*eA; antisense) [Compound 1757575] = 81
• 1757551: mixed MOE/cEt gapmer TTGGTGAATCTTTATTAA, sugar eeekkddddddddeeeee, linkages soossssssssssooss (eT*eTeGkG*kT*dG*dA*dA*dT*d[5mC]*dT*dT*dT*eAeTeT*eA*eA) [compound 1757551] = 52
• 1757569 (eA*e[5mC]eTkTkG*dG*dT*dG*dA*dA*dT*d[5mC]*dT*dT*dT*kAeTeT*eA*eA; antisense) [Compound 1757569] = 60

----------
Test system: human APOE RNA
Protocol Notes: Dose-dependent inhibition of human APOE RNA in HepG2 cells, electroporation, 50,000 cells per well, RT-PCR normalized to GAPDH (Example 4, Tables 8-10)
Assay type: cell-based
Conditions: HepG2 cells, electroporation, 24-hour treatment, 33 nM, Table 8
Strand notation (5' to 3'): a small letter for the sugar, then the base; units joined by * are phosphorothioate-linked, units joined directly phosphodiester-linked; [ ] holds rarer units or linkages, { } end groups; capitals alone tell only the bases. [ms] = mesyl phosphoramidate linkage; e = 2'-O-(2-methoxyethyl) (MOE); k = constrained ethyl (cEt); [5mC] = 5-methylcytosine; d = 2'-deoxy (DNA)
Rule: class 1 for APOE RNA (% UTC) 33 nM not less than 80 % UTC, class 0 for anything less.

- 1778129: modified oligonucleotide complementary to human APOE RNA (eA*e[5mC]eTeTeG*kG*dT*dG[ms]dA[ms]dA*dT*d[5mC]*dT*dT*dT*dA[ms]kT*kT*eA*eA; antisense) [compound 1778129]: class 1
- 1785601: modified oligonucleotide complementary to human APOE RNA (k[5mC]*kT*kT*dG[ms]dG[ms]dT[ms]dG*dA[ms]dA[ms]dT*d[5mC]*dT*dT*dT*dA[ms]dT*kT*kA*dA[ms]kA; antisense) [compound 1785601]: class 1
- 1778125: modified oligonucleotide complementary to human APOE RNA (eA*e[5mC]eTeTeGeG*dT*dG[ms]dA[ms]dA*dT*d[5mC]*dT*dT*dT*dA[ms]kTkT*eA*eA; antisense) [compound 1778125]: class 0
- 1778130: modified oligonucleotide complementary to human APOE RNA (eA*e[5mC]eTeTeG*kG*dT*dG[ms]dA[ms]dA*dT*d[5mC]*dT*dT*dT*dA[ms]kTkT*eA*eA; antisense) [compound 1778130]: class 1
- 1778128: modified oligonucleotide complementary to human APOE RNA (eA*e[5mC]eTeTkGkG*dT*dG[ms]dA[ms]dA*dT*d[5mC]*dT*dT*dT*dA[ms]kTeT*eA*eA; antisense) [compound 1778128]: class 0
